I'd appreciate it if you could supply growth inhibition values for the items below.
assay notes: NCI Yeast Anticancer Drug Screen. Data for the cln2 rad14 strain (AID 165);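 also: 0% = growth equal to vehicle treated cultures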
experimental setup: S. cerevisiae cln2 rad14 strain, at 50.0 µM, stronger effect = higher value
This is part of a sample that, as a whole, favours compounds with a hit. Of some 79,000 tested, about 15% had one in any assay.
Give bare numbers, in %.

Record excerpt, results attached:
compound	reported metric	measurement units	obs value
C(/C=C/C=C/Nc1ccc(N=Nc2ccccc2)cc1)=Nc1ccc(N=Nc2ccccc2)cc1	growth inhibition	%	-1.65
O=C1C(O)=C(c2ccccc2)C(=O)N1c1ccccc1	growth inhibition	%	-62.5
c1ccc(/N=C2\c3ccccc3CN2c2ccccn2)nc1	growth inhibition	%	-3.75
Clc1ccc(CCn2ccc3ccccc32)c(Cl)c1	growth inhibition	%	7.2
Cc1cccc(C(C#N)c2ccc(N)cc2)c1 (configuration not stated)	growth inhibition	%	11.7

Need growth inhibition for each of these compounds.
1. C=CC(C)c1cccc(C=O)c1O (configuration not stated)
2. N#Cc1c2ccccc2c(C#N)c2ccccc12
3. COc1cc(/C=N/NC(=O)C(=O)N/N=C/c2cc(OC)c(OC)c(OC)c2)cc(OC)c1OC

1. -32
2. -25.7
3. 3.9
